The origin of these recorded values is PubChem BioAssay (NCI).

Test system: LOX IMVI melanoma
TEST_METHOD_NOTES: NCI-60 one-dose screen, 48 h
ASSAY_SETUP: 10 µM unless noted
Experimental: Growth inhibition of the LOX IMVI human tumor cell line is measured as a screen for anti-cancer activity. Cells are grown in 96 well plates and exposed to the test compound for 48 hours. Compounds are tested at a single concentration, which is 10^-5 M for most compounds. The reported endpoint is percent growth (GI% or GIPRCNT), where numbers from 0 - 100% represent growth inhibition, and numbers from -100% - 0 represent cell death. For example, a value of 40 represents 60% growth inhibition. […]
This is part of a sample that, as a whole, favours compounds with a hit. Of some 83,000 tested, about 20% had one in any assay. Activity calls are given as the source filed them. Rule for the calls: active = growth percent below 10; inactive = the rest.
Result category, one only: active, inactive

COMPOUND	CATEGORY
CC(=O)Nc1ccc(S(=O)(=O)Cl)cc1	inactive

Q: Check the results log: what was the call for COc1ccc(Oc2[nH]n(C3=Nc4ccccc4Sc4ccccc43)c(=O)c2C#N)cc1 ?
A: inactive

Q: Check the results log: what was the call for Cc1nn(-c2ccccc2)c(N)c1N=C1NC(=O)/C(=C/c2ccc(Cl)cc2)S1 ?
A: inactive

Q: Check the results log: what was the call for CCCCN(CCCC)c1ccc(C(=O)O)cc1 ?
A: inactive

Q: Check the results log: what was the call for CCCCN(CCCC)CC(O)CN(CC)CC (stereo not given) ?
A: inactive

Q: Check the results log: what was the call for COc1ccc(Nc2c3ccccc3nc3ccccc23)cc1 ?
A: inactive

Q: Check the results log: what was the call for CCCC[N+](C)(N)CCCC ?
A: inactive

Q: Check the results log: what was the call for C/C=C(/C)C(=O)OC1C=C(CO)C(=O)C(OC(=O)C2(C)OC2C)C1C(C)C (stereo not given) ?
A: active

Q: Check the results log: what was the call for N=C(N)N=Nc1ccc(NN=C(N)N)cc1 ?
A: inactive

Q: Check the results log: what was the call for COc1ccc(CN2C(=O)/C(=C\C(=O)c3ccc(OCCN4CCCCC4)cc3)c3ccccc32)cc1 ?
A: active

Q: Check the results log: what was the call for CNCCCNCCCCNCCCN1C(=O)c2ccc3c4c(ccc(c24)C1=O)C(=O)N(CCCNCc1ccccc1OC)C3=O ?
A: active

Q: Check the results log: what was the call for COC(=O)CC(=O)C(=O)OC ?
A: inactive

Q: Check the results log: what was the call for CN1CCN(Cc2ccc(NC(=O)c3ccc(C#Cc4c(N)ncc5ccc(F)cc45)cc3)cc2C(F)(F)F)CC1 ?
A: active

Q: Check the results log: what was the call for CCCCCSc1ccc2nc(NC(=O)OCCC)sc2c1 ?
A: inactive

Q: Check the results log: what was the call for CC1(C)Oc2cc3oc(=O)ccc3cc2C[C@@H]1OCCOS(=O)(=O)c1ccc(C#N)cc1 ?
A: inactive

---

System: BT-549 breast
TEST_METHOD_NOTES: NCI-60 one-dose screen, 48 h
ASSAY_SETUP: 10 µM unless noted
About 83,000 compounds went through this panel and 20% of them were active in at least one assay; those are over-represented in the sample as a whole. Active and inactive are the calls of the source. Rule for the calls: active = growth percent below 10; inactive = the rest.
Result category, one only: true for active, false for inactive

These recorded examples may help you get a feel for the data.
COMPOUND	CATEGORY
O=C(Nc1cccc(Cn2c(=O)[nH]c3ccc(Oc4ncccn4)cc3c2=O)c1)c1cccc(F)c1	false
N=c1c2c(=O)n3c(nc2nc2sc4ccc(Cl)cc4n12)-c1ccccc1Sc1ccccc1-3	true
O=C(/C=C/c1ccc(Br)cc1)c1ccccc1	false
COc1cc2oc(-c3ccc(NC(=O)c4ccccc4)cc3)cc(=O)c2c(OC)c1OC	false
CC(C)OC(=O)Nn1cnc2ccccc21	false
CC(=O)N1N=C(c2ccc(Cl)cc2)CC1c1cn(-c2ccccc2)nc1-c1ccc([N+](=O)[O-])cc1 (configuration not stated)	false
CCCCCCCCCCCCCCCCNC(=O)Nc1ccc(C)c(NC(=O)NCCCCCCCCCCCCCCCC)c1	false
CC1=C(C)C[C@]2(C(=O)O[C@H]3CCCC[C@@H]32)[S@](=O)C1	false

Q: Check the results log: what was the call for Clc1ccc(N/N=C(/c2ccccc2)c2ccccn2)nc1 ?
A: false

Q: Check the results log: what was the call for Nc1ccc(N=Nc2ccccc2)c2cc(S(=O)(=O)O)ccc12 ?
A: false

Q: Check the results log: what was the call for Cc1ccc(OCCn2ccc(=O)n(CCOc3ccc(Cl)cc3C(=O)c3cc(C)cc(C)c3)c2=O)cc1 ?
A: false

Q: Check the results log: what was the call for CCOC(=O)CCCCCCCCC(=O)OCC ?
A: false
